Data credit: the supplement of paper PMC6555819

test system: RXRa homodimer (NR concentration 180 nM); test: PBM binding z-score (relative to random genomic background probes); higher = stronger binding; sequences stand for … in GC…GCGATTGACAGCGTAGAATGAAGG
quantityMeasured: PBM binding z-score

{"columns": ["residueSequence", "valueReported"],
 "data": [
  ["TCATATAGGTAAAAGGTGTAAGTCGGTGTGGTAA", 0.644],
  ["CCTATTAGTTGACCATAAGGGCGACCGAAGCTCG", 0.491],
  ["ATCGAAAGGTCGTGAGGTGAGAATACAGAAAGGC", 5.3],
  ["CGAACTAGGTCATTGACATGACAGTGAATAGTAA", 2.84],
  ["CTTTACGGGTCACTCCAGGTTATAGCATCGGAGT", 4.54],
  ["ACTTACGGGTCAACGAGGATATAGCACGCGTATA", 5.48],
  ["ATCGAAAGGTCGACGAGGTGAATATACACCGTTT", 4.64],
  ["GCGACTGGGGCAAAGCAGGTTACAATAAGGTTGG", 0.668],
  ["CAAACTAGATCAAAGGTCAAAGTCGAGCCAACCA", 7.75],
  ["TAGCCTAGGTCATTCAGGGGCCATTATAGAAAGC", 3.12],
  ["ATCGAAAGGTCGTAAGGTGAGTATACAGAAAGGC", 5.29],
  ["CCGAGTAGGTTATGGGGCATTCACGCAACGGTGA", 0.816],
  ["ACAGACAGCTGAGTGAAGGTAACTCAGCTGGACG", 0.00757],
  ["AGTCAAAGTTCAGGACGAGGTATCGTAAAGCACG", 2.81],
  ["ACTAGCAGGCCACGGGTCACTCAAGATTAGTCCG", 2.18],
  ["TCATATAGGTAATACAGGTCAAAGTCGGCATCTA", 3.63],
  ["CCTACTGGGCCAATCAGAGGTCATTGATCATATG", 3.82],
  ["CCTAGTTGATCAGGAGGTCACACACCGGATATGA", 4.41],
  ["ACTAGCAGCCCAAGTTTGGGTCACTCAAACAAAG", 0.612],
  ["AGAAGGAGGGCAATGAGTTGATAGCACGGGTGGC", 0.646],
  ["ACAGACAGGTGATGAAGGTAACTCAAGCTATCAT", 0.166],
  ["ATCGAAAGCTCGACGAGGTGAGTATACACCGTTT", 0.189],
  ["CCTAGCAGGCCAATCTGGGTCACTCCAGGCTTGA", 0.548],
  ["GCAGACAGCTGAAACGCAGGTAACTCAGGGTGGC", -0.453],
  ["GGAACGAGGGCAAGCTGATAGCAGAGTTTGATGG", 0.6],
  ["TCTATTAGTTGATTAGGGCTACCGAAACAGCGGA", 0.363],
  ["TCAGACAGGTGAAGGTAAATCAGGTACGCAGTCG", 1.06],
  ["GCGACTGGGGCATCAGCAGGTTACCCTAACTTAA", 0.381],
  ["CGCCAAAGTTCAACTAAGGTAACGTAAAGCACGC", 4.49],
  ["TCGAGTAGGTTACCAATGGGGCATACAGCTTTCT", 1.01],
  ["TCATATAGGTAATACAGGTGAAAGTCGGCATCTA", 1.44],
  ["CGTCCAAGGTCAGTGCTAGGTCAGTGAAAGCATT", 4.15],
  ["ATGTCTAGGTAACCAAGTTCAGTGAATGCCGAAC", 0.737],
  ["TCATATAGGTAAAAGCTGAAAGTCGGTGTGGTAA", 0.496],
  ["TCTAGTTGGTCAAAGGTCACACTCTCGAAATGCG", 7.91],
  ["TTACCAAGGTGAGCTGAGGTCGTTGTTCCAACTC", 1.42],
  ["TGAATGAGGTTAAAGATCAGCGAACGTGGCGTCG", 3.59],
  ["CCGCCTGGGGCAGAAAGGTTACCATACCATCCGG", 1.55],
  ["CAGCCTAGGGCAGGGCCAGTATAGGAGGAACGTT", -0.507],
  ["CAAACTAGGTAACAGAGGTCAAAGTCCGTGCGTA", 6.18],
  ["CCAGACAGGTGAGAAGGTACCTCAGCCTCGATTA", 0.155],
  ["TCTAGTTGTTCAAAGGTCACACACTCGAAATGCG", 7.19],
  ["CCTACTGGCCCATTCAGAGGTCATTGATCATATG", 3.56],
  ["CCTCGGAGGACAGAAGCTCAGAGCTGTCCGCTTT", -0.985],
  ["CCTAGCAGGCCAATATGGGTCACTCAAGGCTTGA", 1.36],
  ["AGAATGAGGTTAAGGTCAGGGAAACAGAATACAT", 4.93],
  ["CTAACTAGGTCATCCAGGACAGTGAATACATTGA", 3.07],
  ["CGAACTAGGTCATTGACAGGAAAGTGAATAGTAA", 2.61],
  ["AGTCAGAGTTCAGGACGAGGTAACGTAAAGCACG", 3.59],
  ["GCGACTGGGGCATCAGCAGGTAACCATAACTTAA", 0.119],
  ["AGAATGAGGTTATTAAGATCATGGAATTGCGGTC", 1.73]
]}

* * *

The reader will find reported PBM binding z-score values listed item by item below.
test system: PPARg homodimer (NR concentration 180 nM); experiment: PBM binding z-score (relative to random genomic background probes); higher = stronger binding; sequences stand for … in GC…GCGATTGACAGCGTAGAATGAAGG
quantityMeasured: PBM binding z-score

{"columns": ["residueSequence", "valueReported"],
 "data": [
  ["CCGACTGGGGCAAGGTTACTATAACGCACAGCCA", 0.157],
  ["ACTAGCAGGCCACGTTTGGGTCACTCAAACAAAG", 0.639],
  ["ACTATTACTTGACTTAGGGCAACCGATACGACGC", 1.24],
  ["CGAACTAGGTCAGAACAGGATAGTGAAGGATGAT", 1.07],
  ["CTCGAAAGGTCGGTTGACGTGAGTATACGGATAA", 0.644],
  ["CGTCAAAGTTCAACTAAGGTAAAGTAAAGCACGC", 3.47],
  ["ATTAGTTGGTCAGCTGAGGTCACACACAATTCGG", 3.67],
  ["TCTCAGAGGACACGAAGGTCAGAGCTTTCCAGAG", 1.11],
  ["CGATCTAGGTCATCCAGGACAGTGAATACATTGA", 2.27],
  ["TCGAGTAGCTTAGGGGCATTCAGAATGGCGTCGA", -0.986],
  ["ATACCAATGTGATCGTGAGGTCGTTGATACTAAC", 0.242],
  ["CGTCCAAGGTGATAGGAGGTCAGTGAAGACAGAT", 1.91]
]}

* * *

tested on: PPARg:RXRa 270nM:90nM, anti-RXR (NR concentration 270 nM, RXRa partner concentration 90 nM); assay: PBM binding z-score (relative to random genomic background probes); higher = stronger binding; sequences stand for … in GC…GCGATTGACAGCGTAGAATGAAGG
# PBM binding z-score values compiled below

{"columns": ["residueSequence", "PBM binding z-score"],
 "data": [
  ["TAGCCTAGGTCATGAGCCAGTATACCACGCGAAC", 2.98],
  ["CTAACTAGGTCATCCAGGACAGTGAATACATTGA", 7.07],
  ["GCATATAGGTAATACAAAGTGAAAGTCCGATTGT", 0.884],
  ["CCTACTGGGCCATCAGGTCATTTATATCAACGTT", 3.29],
  ["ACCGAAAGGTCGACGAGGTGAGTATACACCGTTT", 3.21],
  ["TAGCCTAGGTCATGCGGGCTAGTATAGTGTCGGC", 2.14],
  ["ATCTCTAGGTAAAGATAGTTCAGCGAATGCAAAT", 0.42],
  ["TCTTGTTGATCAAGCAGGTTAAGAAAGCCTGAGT", 1.11],
  ["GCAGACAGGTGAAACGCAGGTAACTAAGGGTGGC", -0.421],
  ["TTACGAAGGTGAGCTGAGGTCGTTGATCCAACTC", 0.637],
  ["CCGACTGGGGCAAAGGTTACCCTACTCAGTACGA", 8.13],
  ["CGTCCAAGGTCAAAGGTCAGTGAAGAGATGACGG", 8.93]
]}

* * *

system: LXRa homodimer (NR concentration 270 nM); assay: PBM binding z-score (relative to random genomic background probes); higher = stronger binding; sequences stand for … in GC…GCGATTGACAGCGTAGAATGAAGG
Threshold rule: PBM binding z-score greater than or equal to 0.7 is TRUE; below that, FALSE.

{"columns": ["residueSequence", "labelValue"],
 "data": [
  ["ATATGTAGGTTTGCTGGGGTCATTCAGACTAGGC", "TRUE"],
  ["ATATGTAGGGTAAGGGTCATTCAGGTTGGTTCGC", "TRUE"],
  ["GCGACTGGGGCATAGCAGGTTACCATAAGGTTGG", "FALSE"],
  ["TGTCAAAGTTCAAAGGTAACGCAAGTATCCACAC", "TRUE"],
  ["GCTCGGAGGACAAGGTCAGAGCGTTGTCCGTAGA", "FALSE"],
  ["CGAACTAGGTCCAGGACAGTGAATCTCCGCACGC", "FALSE"],
  ["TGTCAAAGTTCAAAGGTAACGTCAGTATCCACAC", "TRUE"],
  ["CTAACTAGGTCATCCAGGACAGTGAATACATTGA", "TRUE"],
  ["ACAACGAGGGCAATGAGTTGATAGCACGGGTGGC", "FALSE"],
  ["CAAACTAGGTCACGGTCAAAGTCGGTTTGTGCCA", "TRUE"],
  ["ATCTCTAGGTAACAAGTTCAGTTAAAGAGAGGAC", "FALSE"],
  ["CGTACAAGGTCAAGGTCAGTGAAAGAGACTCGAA", "TRUE"],
  ["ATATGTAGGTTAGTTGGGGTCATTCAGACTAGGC", "TRUE"],
  ["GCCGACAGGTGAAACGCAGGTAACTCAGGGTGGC", "FALSE"],
  ["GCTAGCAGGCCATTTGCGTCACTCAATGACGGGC", "FALSE"],
  ["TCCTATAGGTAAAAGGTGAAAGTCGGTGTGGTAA", "FALSE"],
  ["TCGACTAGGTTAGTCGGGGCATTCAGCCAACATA", "FALSE"],
  ["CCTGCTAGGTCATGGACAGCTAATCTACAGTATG", "FALSE"],
  ["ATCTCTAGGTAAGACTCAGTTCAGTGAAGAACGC", "FALSE"],
  ["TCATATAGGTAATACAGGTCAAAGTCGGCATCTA", "TRUE"],
  ["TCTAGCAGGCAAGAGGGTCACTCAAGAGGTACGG", "FALSE"],
  ["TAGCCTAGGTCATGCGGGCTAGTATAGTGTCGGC", "FALSE"],
  ["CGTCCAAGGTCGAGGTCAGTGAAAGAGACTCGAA", "FALSE"],
  ["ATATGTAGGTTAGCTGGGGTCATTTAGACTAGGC", "TRUE"],
  ["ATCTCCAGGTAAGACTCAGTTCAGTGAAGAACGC", "FALSE"],
  ["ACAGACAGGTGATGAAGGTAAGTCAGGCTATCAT", "FALSE"]
]}
